These measurements were taken from patent US6589993B2.

system: S. aureus Met-R multiresistant strains; test: MIC determination (NCCLS broth microdilution), methicillin-resistant multiresistant S. aureus strains; assay type: cell-based, Staphylococcus aureus; settings: Staphylococcus aureus, Strain 32; antibiotype Oxa, Cip, Clin, Ery, Gm, SXT, Rif; read-out: MIC
Reported values of MIC for individual entries

Examples from the recorded data:
CS(=O)(=O)c1ccc([C@@H](O)[C@@H](CO)NC(=O)C(Cl)Cl)cc1
> 64 µg/mL
COc1cccc(OC)c1C(=O)N[C@@H]1C(=O)N2[C@@H]1SC(C)(C)[C@@H]2C(=O)O
> 64 µg/mL

// switching to the query compound
"CC[C@H]1OC(=O)[C@H](C)[C@@H](O[C@H]2C[C@@](C)(OC)[C@@H](O)[C@H](C)O2)[C@H](C)[C@@H](O[C@@H]2O[C@H](C)C[C@H](N(C)C)[C@H]2O)[C@](C)(O)C[C@@H](C)C(=O)[C@H](C)[C@@H](O)[C@]1(C)O" on S. aureus Met-R multiresistant strains gives MIC = > 64 µg/mL

---

tested on: S. aureus Met-R multiresistant strains; experiment: MIC determination (NCCLS broth microdilution), methicillin-resistant multiresistant S. aureus strains; type: cell-based, Staphylococcus aureus; conditions: Staphylococcus aureus, Strain 13; antibiotype Oxa, Cip, Clin, Ery; read-out: MIC
Listed molecules paired with reported MIC

With S. aureus Met-R multiresistant strains as the test system, "CC[C@H]1OC(=O)[C@H](C)[C@@H](O[C@H]2C[C@@](C)(OC)[C@@H](O)[C@H](C)O2)[C@H](C)[C@@H](O[C@@H]2O[C@H](C)C[C@H](N(C)C)[C@H]2O)[C@](C)(O)C[C@@H](C)C(=O)[C@H](C)[C@@H](O)[C@]1(C)O" showed MIC of > 64 µg/mL

// assay S. aureus Met-R multiresistant strains, entry "CCC[C@@H]1C[C@@H](C(=O)N[C@@H]([C@H]2O[C@H](SC)[C@H](O)[C@@H](O)[C@H]2O)[C@H](C)Cl)N(C)C1" , MIC value = > 64 µg/mL

Hey, S. aureus Met-R multiresistant strains data for "COc1cccc(OC)c1C(=O)N[C@@H]1C(=O)N2[C@@H]1SC(C)(C)[C@@H]2C(=O)O" : MIC came out at > 64 µg/mL

---

system: S. aureus Met-R multiresistant strains; experiment: MIC determination (NCCLS broth microdilution), methicillin-resistant multiresistant S. aureus strains; assay type: cell-based, Staphylococcus aureus; settings: Staphylococcus aureus, Strain 22; antibiotype Oxa, Cip, Clin, Ery; read-out: MIC
The reader will find reported MIC values listed item by item below.

Here is how some compounds turned out for MIC.
CCC[C@@H]1C[C@@H](C(=O)N[C@@H]([C@H]2O[C@H](SC)[C@H](O)[C@@H](O)[C@H]2O)[C@H](C)Cl)N(C)C1
> 64 µg/mL
COc1cccc(OC)c1C(=O)N[C@@H]1C(=O)N2[C@@H]1SC(C)(C)[C@@H]2C(=O)O
> 64 µg/mL

Shifting focus to the compound that follows.
Recorded MIC for "CC[C@H]1OC(=O)[C@H](C)[C@@H](O[C@H]2C[C@@](C)(OC)[C@@H](O)[C@H](C)O2)[C@H](C)[C@@H](O[C@@H]2O[C@H](C)C[C@H](N(C)C)[C@H]2O)[C@](C)(O)C[C@@H](C)C(=O)[C@H](C)[C@@H](O)[C@]1(C)O" on S. aureus Met-R multiresistant strains was > 64 µg/mL
